# pIC50 annotations
Molecular target: T1, human GLP-1 receptor (human, UniProt P43220 24-463)
T1 construct: whole, on cells
Assay: SPA competition, displacement of 125I-GLP-1(7-36)NH2 from BHK membranes with human GLP-1 receptor; high HSA (2.0%)
Non-standard residues stand in square brackets, D forms with d. Groups on a side chain read outwards from the residue. No end group written: not given here. *: point of attachment. C20 diacid = O=C(O)CCCCCCCCCCCCCCCCCCC(=O)*; Desaminohistidyl = O=C(CCc1c[nH]cn1)*; Trx = NC[C@H]1CC[C@H](C(=O)O)CC1; AEEA = NCCOCCOCC(=O)O; Aib = CC(C)(N)C(=O)O
Would you please state pIC50, meaning minus log10 of the concentration in mol/L, as a bare number?

Below, 10 binders whose answers are already recorded.
HXEGTFTSDVSSYLEEQAAREFIAWLVRGRK (not fully specified; Aib at position 8 (GLP-1 numbering); epsilon-amino of Lys37 acylated with branched side chain: Pre-linker 2xAdo; Branched linker eps-Lys(Bis); two Post-linkers Trx-gGlu-2xAdo, each carrying a C20 diacid Protractor, also called Chem. 22; N{Epsilon-37}-acylated [Aib8,Glu22,Arg26,Arg34,Lys37]-GLP-1-(7-37)-peptide) [GLP-1 derivative of Example 2]    7.31
[Desaminohistidyl][Aib]EGTFTSDVSSYLEEQAAREFIAWLVRGRGGK([AEEA-AEEA-AEEA-AEEA-Lys-code γGlu-Trx-C20 diacid),(γGlu-Trx-C20 diacid]) (also: branched side chain on Lys39: two identical arms on eps-Lys(Bis), also called Chem. 26; [Imp7,Aib8,Glu22,Arg26,Arg34]-GLP-1-(7-37)-peptidyl-Gly-N{Epsilon}-acylated Lys) [GLP-1 derivative of Example 6]    6.85
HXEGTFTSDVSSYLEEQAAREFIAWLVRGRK (Aib at position 8 (GLP-1 numbering); epsilon-amino of Lys37 acylated with branched side chain: Pre-linker 4xAdo; Branched linker eps-Lys(Bis); two Post-linkers Trx-gGlu, each carrying a C20 diacid Protractor, also called Chem. 28; N{Epsilon-37}-acylated [Aib8,Glu22,Arg26,Arg34,Lys37]-GLP-1-(7-37)-peptide) [GLP-1 derivative of Example 8]    7.35
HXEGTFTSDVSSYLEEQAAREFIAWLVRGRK (not fully specified; Aib at position 8 (GLP-1 numbering); epsilon-amino of Lys37 acylated with branched side chain: Pre-linker 2xeps-Lys; Branched linker eps-Lys(Bis); two Post-linkers Trx-gGlu, each carrying a C20 diacid Protractor, also called Chem. 29; N{Epsilon-37}-acylated [Aib8,Glu22,Arg26,Arg34,Lys37]-GLP-1-(7-37)-peptide) [GLP-1 derivative of Example 9]    6.82
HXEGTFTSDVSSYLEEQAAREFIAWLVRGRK (not fully specified; Aib at position 8 (GLP-1 numbering); epsilon-amino of Lys37 acylated with branched side chain: Pre-linker dPEG20; Branched linker eps-Lys(Bis); two Post-linkers Trx-gGlu, each carrying a C20 diacid Protractor, also called Chem. 25; N{Epsilon-37}-acylated [Aib8,Glu22,Arg26,Arg34,Lys37]-GLP-1-(7-37)-peptide) [GLP-1 derivative of Example 5]    8.01
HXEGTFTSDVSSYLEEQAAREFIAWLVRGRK (not fully specified; Aib at position 8 (GLP-1 numbering); epsilon-amino of Lys37 acylated with branched side chain: Pre-linker dPEG12; Branched linker eps-Lys(Bis); two Post-linkers Trx-gGlu, each carrying a C20 diacid Protractor, also called Chem. 24; N{Epsilon-37}-acylated [Aib8,Glu22,Arg26,Arg34,Lys37]-GLP-1-(7-37)-peptide) [GLP-1 derivative of Example 4]    7.29
H[Aib]EGTFTSDVSSYLEEQAAREFIAWLVRGRGK (not fully specified (residue 32), also called Chem. 39; N{Alpha}([Aib8,Glu22,Arg26,Arg34]-GLP-1-(7-37)-peptidyl)-N{Epsilon}-acylated Lys) [GLP-1 derivative of Example 19]    7.47
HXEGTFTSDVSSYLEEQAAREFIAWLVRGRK (not fully specified; Aib at position 8 (GLP-1 numbering); epsilon-amino of Lys37 acylated with branched side chain: Pre-linker Ado; Branched linker eps-Lys(Bis); two Post-linkers Trx-gGlu-2xAdo, each carrying a C20 diacid Protractor, also called Chem. 21; N{Epsilon-37}-acylated [Aib8,Glu22,Arg26,Arg34,Lys37]-GLP-1-(7-37)-peptide) [GLP-1 derivative of Example 1]    6.85
H[Aib]EGTFTSDVSSYLEEQAAREFIAWLVRGKG (not fully specified (residue 30), also called Chem. 38; N{Epsilon-36}-acylated [Aib8,Glu22,Arg26,Arg34,Lys36]-GLP-1-(7-37)-peptide) [GLP-1 derivative of Example 18]    7.62
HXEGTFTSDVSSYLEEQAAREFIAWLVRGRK (Aib at position 8 (GLP-1 numbering); epsilon-amino of Lys37 acylated with branched side chain: Pre-linker 6xAdo; Branched linker eps-Lys(Bis); two Post-linkers Trx-gGlu, each carrying a C20 diacid Protractor, also called Chem. 32; N{Epsilon-37}-acylated [Aib8,Glu22,Arg26,Arg34,Lys37]-GLP-1-(7-37)-peptide) [GLP-1 derivative of Example 12]    7.77

Attention now shifts to the item below.
Data request, read-out pIC50, for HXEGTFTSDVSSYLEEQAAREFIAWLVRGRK (not fully specified; Aib at position 8 (GLP-1 numbering); epsilon-amino of Lys37 acylated with branched side chain: Pre-linker 4xAdo; Branched linker eps-Lys(Bis); two Post-linkers Trx-gGlu-Ado, each carrying a C20 diacid Protractor, also called Chem. 41; N{Epsilon-37}-acylated [Aib8,Glu22,Arg26,Arg34,Lys37]-GLP-1-(7-37)-peptide) [GLP-1 derivative of Example 21]
7.72
